Provenance of the data: patent US11168088B2

Consider molecules characterized by their IC50 with CDK4 (Homo sapiens (Human), UniProt P11802).
Sequence (P11802 whole entry, looked up): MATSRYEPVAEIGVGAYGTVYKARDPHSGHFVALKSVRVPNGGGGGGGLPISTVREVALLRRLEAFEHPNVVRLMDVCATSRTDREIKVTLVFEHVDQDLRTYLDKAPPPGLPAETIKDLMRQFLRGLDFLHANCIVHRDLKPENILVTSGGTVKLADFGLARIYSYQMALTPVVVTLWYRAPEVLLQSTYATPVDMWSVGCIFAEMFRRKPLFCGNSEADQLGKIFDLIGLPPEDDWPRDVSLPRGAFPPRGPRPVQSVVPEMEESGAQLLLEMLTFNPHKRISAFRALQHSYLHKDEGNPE
Sequence (P24385 whole entry partner, looked up): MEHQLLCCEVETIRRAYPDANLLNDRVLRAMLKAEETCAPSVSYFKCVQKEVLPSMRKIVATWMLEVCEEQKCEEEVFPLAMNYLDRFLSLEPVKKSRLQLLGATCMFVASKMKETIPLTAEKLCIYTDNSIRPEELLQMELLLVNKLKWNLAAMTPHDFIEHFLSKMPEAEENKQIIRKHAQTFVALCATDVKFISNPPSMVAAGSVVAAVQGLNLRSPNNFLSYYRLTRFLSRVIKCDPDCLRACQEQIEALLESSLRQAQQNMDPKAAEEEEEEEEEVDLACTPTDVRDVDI
metric.name: IC50 (nM)

a. CCc1nc2c(n1C1CCCC1)-c1nc(Nc3ccc(N4CCNCC4)cn3)ncc1C2 [Compound P-34]
b. CC(C)c1c2c(nn1C)C1(CC1)c1cnc(Nc3ccc(N4CCNCC4)cn3)nc1-2 [Compound P-57]
// query Please let me know which one, a or b , has a lower measured IC50 value. Refer to your chosen entry by its label in the reply.
// result b

I. Cc1nc2c(n1CC1CC1)-c1nc(Nc3ccc(N4CCNCC4)cn3)ncc1C2 [Compound P-28]
II. CC(C)c1c2c(nn1C)C(C)(C(C)O)Cc1cnc(Nc3ccc(N4CCNCC4)cn3)nc1-2 (stereo not shown) [Compound P-60]
// query Form field 'greater IC50' accepts I or II ; which applies? Refer to your chosen entry by its label in the reply.
// result II

====

Molecular target: CDK2 (Homo sapiens (Human), UniProt P24941)
metric.name: IC50 (nM)

Record excerpt, results attached:
c1cc(Nc2ncc3c(n2)-c2c(cnn2C2CCCC2)CC3)ncc1N1CCNCC1
1440
CC(C)c1c2c(nn1C)Cc1cnc(Nc3ccc(N4CCNCC4)cn3)nc1-2
8250
CC(C)c1c2c(nn1C)COc1cnc(Nc3ccc(N4CCNCC4)cn3)nc1-2
761

A. CC(C)c1c2c(nn1C)C(C)(C)c1cnc(Nc3ccc(N4CCNCC4)cn3)nc1-2
B. CCN1CCN(c2ccc(Nc3ncc4c(n3)-c3c(nn(C)c3C(C)C)C4)nc2)CC1
// query Form field 'greater IC50' accepts A or B ; which applies? Refer to your chosen entry by its label in the reply.
// result B

====

Target: CDK4 (Homo sapiens (Human))
metric.name: IC50 (nM)

Record excerpt, results attached:
Cc1nc2c(n1C(C)C)-c1nc(Nc3ccc(N4CCNCC4)cn3)ncc1CC2 [Compound P-24]
3
Cc1nc2sc3cnc(Nc4ccc(N5CCNCC5)cn4)nc3c2n1C(C)C [Compound P-65]
1070

I. CCc1nc2c(n1C(C)C)-c1nc(Nc3ccc(CN4CCN(CC)CC4)cn3)ncc1C2 [Compound P-5]
II. CC(C)c1[nH]nc2c1-c1nc(Nc3ccc(N4CCNCC4)cn3)ncc1CC2 [Compound P-29]
// query Please let me know which one, I or II , has a lower measured IC50 value. Refer to your chosen entry by its label in the reply.
// result II

I. CCn1nc2c(c1C(C)C)-c1nc(Nc3ccc(N4CCNCC4)cn3)ncc1CC2 [Compound P-4]
II. CC(C)c1c2c(nn1C)CC(C)(C)c1cnc(Nc3ccc(N4CCNCC4)cn3)nc1-2 [Compound P-44]
III. CCn1nc2c(c1C(C)C)-c1nc(Nc3ccc(N4CCNCC4)cn3)ncc1C(C)(C)C2 [Compound P-48]
IV. COCc1nn(C(C)C)c2c1CCc1cnc(Nc3ccc(N4CCNCC4)cn3)nc1-2 [Compound P-59]
// query Your job: order these 4 records by IC50, ascending. Please write the labels in the order that was asked for.
// result I, IV, III, II
(I: 5 nM, IV: 21 nM, III: 97 nM, II: 173 nM)

A. CCc1nc2c(n1C(C)C)-c1nc(Nc3ccc(N4CCNCC4)cn3)ncc1CC2 [Compound P-23]
B. c1cc(Nc2ncc3c(n2)-c2nn(C4CCCC4)cc2CC3)ncc1N1CCNCC1 [Compound P-36]
C. CCc1nc2c(n1CC)-c1nc(Nc3ccc(N4CCNCC4)cn3)ncc1C2 [Compound P-21]
D. CC(C)c1c2c3nc(Nc4ccc(N5CCNCC5)cn4)ncc3n(C)c2nn1C [Compound P-58]
// query Your job: order these 4 records by IC50, ascending. Please write the labels in the order that was asked for.
// result A, D, C, B

====

Consider compounds characterized by their IC50 with CDK1 (Homo sapiens (Human), UniProt P06493).
Sequence (P06493 whole entry): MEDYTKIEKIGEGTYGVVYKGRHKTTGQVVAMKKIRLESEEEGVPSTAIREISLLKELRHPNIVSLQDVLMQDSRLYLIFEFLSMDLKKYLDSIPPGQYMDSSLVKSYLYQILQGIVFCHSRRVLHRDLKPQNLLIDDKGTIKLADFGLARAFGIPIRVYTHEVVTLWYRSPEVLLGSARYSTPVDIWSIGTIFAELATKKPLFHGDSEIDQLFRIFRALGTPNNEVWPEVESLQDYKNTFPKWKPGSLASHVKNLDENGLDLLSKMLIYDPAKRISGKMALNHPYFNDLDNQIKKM
Sequence (P14635 whole entry partner): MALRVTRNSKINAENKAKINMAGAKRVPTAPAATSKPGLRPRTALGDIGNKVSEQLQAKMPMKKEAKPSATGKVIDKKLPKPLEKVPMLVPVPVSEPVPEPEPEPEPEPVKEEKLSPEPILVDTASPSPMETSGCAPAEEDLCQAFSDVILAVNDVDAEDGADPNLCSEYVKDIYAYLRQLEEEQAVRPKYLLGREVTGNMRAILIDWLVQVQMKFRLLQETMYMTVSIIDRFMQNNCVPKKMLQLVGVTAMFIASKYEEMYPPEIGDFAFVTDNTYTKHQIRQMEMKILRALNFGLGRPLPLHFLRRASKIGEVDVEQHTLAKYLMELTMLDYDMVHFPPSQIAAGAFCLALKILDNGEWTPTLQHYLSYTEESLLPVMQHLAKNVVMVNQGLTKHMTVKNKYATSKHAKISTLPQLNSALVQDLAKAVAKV
metric.name: IC50 (µM)

CC(C)c1c2c(nn1C)COc1cnc(Nc3ccc(N4CCNCC4)cn3)nc1-2
0.855
Cc1nc2c(n1C(C)C)-c1nc(Nc3ccc(N4CCNCC4)cn3)ncc1CC2
3.57

P. CCc1nc2c(n1C(C)C)-c1nc(Nc3ccc(N4CCNCC4)cn3)ncc1CC2
Q. CC(C)c1c2c(nn1C)CCc1cnc(Nc3ccc(N4CCNCC4)cn3)nc1-2
R. Cc1nc2c(n1C1CCCC1)-c1nc(Nc3ccc(N4CCNCC4)cn3)ncc1C2
S. CCN1CCN(c2ccc(Nc3ncc4c(n3)-c3c(nn(C)c3C(C)C)C4)nc2)CC1
// query Your job: order these 4 records by IC50, ascending. Please write the labels in the order that was asked for.
// result Q, P, R, S

====

Assay: Pharmacokinetics and brain distribution test
Assay type: in vivo, SD rats
Conditions: male, SD, rat; rats, oral administration of 10 mg/kg, plasma; read-out: AUC in plasma
metric.name: AUC (ng·h/mL)
Your answer is read as ng·h/mL, so omit the unit and give the number.

// query Provide one value: measured AUC of CCN1CCN(Cc2ccc(Nc3ncc4c(n3)-c3c(nc(C5CC5)n3C(C)C)C4)nc2)CC1.O=CO
// result 2620

====

Consider compounds characterized by their IC50 with CDK4 (Homo sapiens (Human)).
metric.name: IC50 (nM)

Record excerpt, results attached:
CC(C)c1c2c(nn1C(F)F)Cc1cnc(Nc3ccc(N4CCNCC4)cn3)nc1-2 [Compound P-27]
6
CC(C)c1c2c(nn1C)COc1cnc(Nc3ccc(N4CCNCC4)cn3)nc1-2 [Compound P-30]
9
CCc1nc2c(n1C(C)C)-c1nc(Nc3ccc(CN4CCN(CC)CC4)cn3)ncc1CC2 [Compound P-3]
6

a. CC(=O)C1(C)Cc2cnc(Nc3ccc(N4CCNCC4)cn3)nc2-c2c1nn(C)c2C(C)C (centres unmarked) [Compound P-55]
b. CC(=O)C1(C)Cc2cnc(Nc3ccc(N4CCNCC4)cn3)nc2-c2c1ncn2C(C)C (centres unmarked) [Compound P-63]
// query Please let me know which one, a or b , has a lower measured IC50 value. Refer to your chosen entry by its label in the reply.
// result b

====

Consider compounds characterized by their pIC50 with CDK1 (Homo sapiens (Human)).
pIC50: −log10 of the molar value.

Record excerpt, results attached:
CC(C)n1ncc2c1-c1nc(Nc3ccc(N4CCNCC4)cn3)ncc1CC2
< 5.00
CC(C)c1[nH]nc2c1-c1nc(Nc3ccc(N4CCNCC4)cn3)ncc1CC2
< 6.00

API: the following record is the query input.
// query State recorded pIC50 with CDK1 (Homo sapiens (Human)), entry Cc1c2c(nn1C)CCc1cnc(Nc3ccc(N4CCN(C)CC4)cn3)nc1-2 , no comment.
// result 6.03
